system: K. pneumoniae 9883; settings: 9883, 18 h
Ends that are not written are not given here.

- substance: "GWGSFFKKAAHVGKHVGKAALTHYL-NH2 [Pleurecidin]"
  tgt: "K. pneumoniae 9883"
  MIC: "4.69(1.73) µg mL^−1"
- substance: "ILRWPWWPWRRK-NH2 [Omiganan]"
  tgt: "K. pneumoniae 9883"
  MIC: ">100(56.21) µg mL^−1"
- substance: "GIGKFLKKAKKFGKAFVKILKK-NH2 [MSI‐78]"
  tgt: "K. pneumoniae 9883"
  MIC: "15.14(37.5) µM"
- substance: "RRIRPRPPRLPRPRPRP [Bac-7]"
  tgt: "K. pneumoniae 9883"
  MIC: "9.38(4.32) µg mL^−1"
